This section presents molecules with their documented Potency values.
- assaySystem: Adrenergic receptor alpha-1 (Rattus norvegicus) (UniProt P15823+P23944+P43140)
- method: In vitro agonist activity against alpha-1 adrenoceptor in rat anococcygeus
- Type: functional

smilesString: O=C1COc2cc(NC3=NCCN3)ccc2N1
Potency: 0.006
//
smilesString: Clc1cccc(Cl)c1NC1=NCCN1
Potency: 0.8
//
smilesString: c1cc2c(cc1NC1=NCCN1)OCCO2
Potency: 0.01
//
smilesString: O=CN1CCOc2cc(NC3=NCCN3)ccc21
Potency: 0.02

* * *

- assaySystem: Adrenergic receptor alpha-2 (Rattus norvegicus) (UniProt P22086+P19328+P22909)
- method: In vitro agonist activity against alpha-2A adrenergic receptor in rat vas deferens
- Format: functional, tissue-based
Readings of Potency for the listed compounds

smilesString: I.O=CN1CCOc2ccc(NC3=NCCN3)cc21
assaySystem: Adrenergic receptor alpha-2 (Rattus norvegicus) (UniProt P22086+P19328+P22909)
readoutQualifier: =
Potency: 0.02

smilesString: O=C1COc2ccc(NC3=NCCN3)cc2N1
assaySystem: Adrenergic receptor alpha-2 (Rattus norvegicus) (UniProt P22086+P19328+P22909)
readoutQualifier: =
Potency: 0

smilesString: CN1CCOc2ccc(NC3=NCCN3)cc21
assaySystem: Adrenergic receptor alpha-2 (Rattus norvegicus) (UniProt P22086+P19328+P22909)
readoutQualifier: =
Potency: 0.025

smilesString: CCN1CCc2ccc(NC3=NCCN3)cc21
assaySystem: Adrenergic receptor alpha-2 (Rattus norvegicus) (UniProt P22086+P19328+P22909)
readoutQualifier: =
Potency: 0

smilesString: CC(=O)N1CCOc2ccc(NC3=NCCN3)cc21.I
assaySystem: Adrenergic receptor alpha-2 (Rattus norvegicus) (UniProt P22086+P19328+P22909)
readoutQualifier: =
Potency: 0.1

smilesString: CN1CCOc2cc(NC3=NCCN3)ccc21.I
assaySystem: Adrenergic receptor alpha-2 (Rattus norvegicus) (UniProt P22086+P19328+P22909)
readoutQualifier: =
Potency: 0.03

smilesString: c1ccc(CN2CCOc3cc(NC4=NCCN4)ccc32)cc1
assaySystem: Adrenergic receptor alpha-2 (Rattus norvegicus) (UniProt P22086+P19328+P22909)
readoutQualifier: =
Potency: 0.02

smilesString: c1cc2c(cc1NC1=NCCN1)OCO2
assaySystem: Adrenergic receptor alpha-2 (Rattus norvegicus) (UniProt P22086+P19328+P22909)
readoutQualifier: =
Potency: 0.03

smilesString: CS(=O)(=O)N1CCOc2ccc(NC3=NCCN3)cc21.I
assaySystem: Adrenergic receptor alpha-2 (Rattus norvegicus) (UniProt P22086+P19328+P22909)
readoutQualifier: =
Potency: 0.22

smilesString: CCN1CCOc2cc(NC3=NCCN3)ccc21
assaySystem: Adrenergic receptor alpha-2 (Rattus norvegicus) (UniProt P22086+P19328+P22909)
readoutQualifier: <
Potency: 0.01

smilesString: CC(=O)N1CCc2ccc(NC3=NCCN3)cc21
assaySystem: Adrenergic receptor alpha-2 (Rattus norvegicus) (UniProt P22086+P19328+P22909)
readoutQualifier: =
Potency: 0.006

* * *

- Test system: Rattus norvegicus
- method: Effective dose of the compound required to inhibit electrically evoked contractions of rat vas deferens after i.v. administration
- Type: functional
- conditions: iv
TRUE if ED40 is below 0.4 mg/kg. FALSE if not; exact matches included in FALSE.

smilesString: CN1CCOc2cc(NC3=NCCN3)ccc21.I
classLabel: FALSE

smilesString: I.O=CN1CCOc2ccc(NC3=NCCN3)cc21
classLabel: TRUE

smilesString: Brc1c(NC2=NCCN2)ccc2nccnc12
classLabel: TRUE

smilesString: CS(=O)(=O)N1CCOc2ccc(NC3=NCCN3)cc21.I
classLabel: TRUE

smilesString: CC(=O)N1CCOc2ccc(NC3=NCCN3)cc21.I
classLabel: TRUE

* * *

- Species: Rattus norvegicus
- method: Maximum percent inhibition electrically evoked contractions of rat vas deferens by the compound was determined as test for its agonistic activity
- Format: functional
Threshold-based label: Inhibition under 70% gives Fulfilled, Inhibition not under 70% gives Not fulfilled.

molecule: Brc1c(NC2=NCCN2)ccc2nccnc12 [BRIMONIDINE]
classLabel: Not fulfilled

molecule: I.O=CN1CCOc2ccc(NC3=NCCN3)cc21
classLabel: Fulfilled

molecule: CN1CCOc2cc(NC3=NCCN3)ccc21.I
classLabel: Fulfilled

* * *

- Species: Rattus norvegicus
- method: Antagonist activity against guanoxabenz-induced mydriasis in rat when given […]
- Type: functional

compound: c1ccc2c(c1)OCC(C1=NCCN1)O2 (stereo not given)
AD50: 0.02936 mg/kg

compound: CC(=O)N1CCOc2ccc(NC3=NCCN3)cc21.I
AD50: >0.2 mg/kg

compound: I.O=CN1CCOc2ccc(NC3=NCCN3)cc21
AD50: 0.297 mg/kg

compound: CN1CCOc2cc(NC3=NCCN3)ccc21.I
AD50: 0.0589 mg/kg

compound: CS(=O)(=O)N1CCOc2ccc(NC3=NCCN3)cc21.I
AD50: >0.3 mg/kg

* * *

- assaySystem: Adrenergic receptor alpha-1 (Rattus norvegicus) (UniProt P15823+P23944+P43140)
- method: In vitro antagonistic activity against alpha-1 adrenergic receptor in rat anococcygeus
- Type: functional
Potency values for the compounds below.

smilesString: c1cc2c(cc1NC1=NCCN1)OCO2
assaySystem: Adrenergic receptor alpha-1 (Rattus norvegicus) (UniProt P15823+P23944+P43140)
Potency: 0.003

smilesString: CS(=O)(=O)N1CCOc2ccc(NC3=NCCN3)cc21.I
assaySystem: Adrenergic receptor alpha-1 (Rattus norvegicus) (UniProt P15823+P23944+P43140)
Potency: 0.0005

smilesString: CC(=O)N1CCOc2ccc(NC3=NCCN3)cc21.I
assaySystem: Adrenergic receptor alpha-1 (Rattus norvegicus) (UniProt P15823+P23944+P43140)
Potency: 0.0006

smilesString: CC(=O)N1CCc2ccc(NC3=NCCN3)cc21
assaySystem: Adrenergic receptor alpha-1 (Rattus norvegicus) (UniProt P15823+P23944+P43140)
Potency: 2e-05

smilesString: c1ccc(CN2CCOc3cc(NC4=NCCN4)ccc32)cc1
assaySystem: Adrenergic receptor alpha-1 (Rattus norvegicus) (UniProt P15823+P23944+P43140)
Potency: 0.001
